Before we begin, note that these IC50 values for Cytochrome P450 3A4 (Homo sapiens, UniProt P08684) originate from several publications.

Cc1ccc2[nH]c(C(=O)N3CCC(CC(C)(C)O)CC3)cc2c1	> 100 µM
CC(C)c1nc(-c2ccc(F)cc2)c(-c2ccc3nc(N)n(S(=O)(=O)C(C)C)c3c2)[nH]1.CS(=O)(=O)O	6.1 µM
O=C(/C=C/c1cccnc1)c1ccc2ccc3ccccc3c2c1	26 µM
Cc1noc(C)c1CCC1CCN(S(=O)(=O)CC2(N(O)C=O)CCN(C(=O)C3CCC3)CC2)CC1	> 10 µM
CN(C[C@H]1Cc2c(cccc2N2C[C@H]3C[C@@H]2CN3)CN1)[C@H]1CCCc2cccnc21	> 20 µM
COCCN(C)c1cccc(-c2cc(NC(C)=O)nc(-n3nc(C)cc3C)n2)n1	2.5 µM

Please go through the list and note IC50 for each molecule.
1. COc1cc(C(F)(F)F)cc(SC)c1C(=O)N[C@@]1(c2ccccc2)CCCN(C)C1
2. CS(=O)(=O)N1CC[C@@H]([C@H]2c3ccccc3-c3cncn32)[C@H](O)C1
3. COc1ccc(-c2oc3cc(O)cc(O)c3c(=O)c2OC)cc1
4. CCc1cc(-c2ccc(NS(=O)(=O)c3cc(C(F)(F)F)cc(C(F)(F)F)c3)cc2)ccn1
5. Nc1nccn2c1c(-c1ccc3ccc(-c4ccccc4)nc3c1)nc2[C@H]1C[C@@H](N2CCC2)C1
6. COc1cc(NC2CN(CCCF)C2)ccc1[C@@H]1c2ccc3[nH]ncc3c2C[C@@H](C)N1CC1(F)CC1

1. > 50 µM
2. > 10 µM
3. 21.8 µM
4. 12.2 µM
5. > 20 µM
6. 11 µM

Please go through the list and note IC50 for each molecule.
1. COCC(=O)N1CCC(c2ccc(C(=O)NC(=N)N)cc2C(F)(F)F)CC1
2. Cn1cc(CNc2cc(OC[C@H]3C[C@@H]3c3ccccn3)nc3ccnn23)cn1
3. O=S(=O)(N[C@@H]1CC[C@@]2(S(=O)(=O)c3ccc(Cl)cc3)c3c(F)ccc(F)c3OC[C@H]2C1)C(F)(F)F
4. CN1C[C@H](C(=O)Nc2ccc(Cl)cc2)[C@@H](c2ccc(/C=C/C(=O)Nc3ccccc3N)cc2)C1
5. O=C1Nc2ccccc2[C@]12C[C@H]2c1ccc2c(/C=C/c3cccnc3)n[nH]c2c1 (relative stereo)
6. N#Cc1ccccc1SC1=C(O)CC(c2ccccc2)CC1=O (centres undefined)
7. O=C(C1CCOC1)N1C[C@@H]2[C@H](CNc3nc(-c4ccccn4)cs3)[C@@H]2C1 (some centres undefined)

1: > 30 µM; 2: > 50 µM; 3: > 30 µM; 4: 14 µM; 5: > 1 µM; 6: > 5 µM; 7: > 10 µM
